Numbers sourced from ChEMBL document CHEMBL2413047.

experiment: Oral bioavailability in dog at 10 mg/kg; format: ADME, organism-based, Canis lupus familiaris; conditions: in vivo
QUANTITY KIND: bioavailability

Suppose we examine the molecule CC(C)c1nc2ccccc2n1-c1nc(N2CCOCC2)c2nc(OC3CN(C4CCS(=O)(=O)CC4)C3)n(C)c2n1 ; what bioavailability value has been reported?
100%

* * *

experiment: AUC in rat at 5 mg/kg, po; format: ADME, organism-based; set-up: dose 5 mg/kg, route oral; conditions: plasma
QUANTITY KIND: AUC (µM·h)
Quick note: give the figure in µM·h, leave out the unit.

Suppose we examine the molecule CC(C)c1nc2ccccc2n1-c1nc(N2CCOCC2)c2nc(OC3CN(C4CCS(=O)(=O)CC4)C3)n(C)c2n1 ; what AUC value has been reported?
7.23
